Value source: ChEMBL document CHEMBL3507680

- ASSAY_EXPLANATION: Human HepG2 cell viability assay in 384 well format
- Format: toxicity, cell-based
- Design: dose 125 nL, time 70.5 hour; concentration not given beside the values
- PROTOCOL_CONDITIONS: HepG2 cells, read-out: Inhibition
ENDPOINT: cytotoxicity at 70.5 h (%)
The reply should contain only the number, in %.

input: # get_value(readout='cytotoxicity at 70.5 h', item= Cc1cc(C(=O)NCC(O)c2ccc(Cl)s2)c(C)o1 (configuration not stated) )
output: -10.3

input: Look at this compound and give its reported cytotoxicity at 70.5 h. Cc1ccc(F)cc1C(=O)OCC1CCCN1C(N)=O (configuration not stated)
output: -1.91

input: Which cytotoxicity at 70.5 h value belongs to COCc1cc(N2CCOC(c3ccc(F)cc3)C2)ncn1 (configuration not stated) ?
output: -14.9

input: Which value of cytotoxicity at 70.5 h has been reported for Cc1nnn2c1COCC(CNC(=O)c1ccc[nH]1)C2 (configuration not stated) in the records?
output: 7.03

input: Given Cn1cc(CN2C[C@H]3CCC[C@@H](CNc4ncccn4)[C@H]3C2)cn1 , state its recorded cytotoxicity at 70.5 h.
output: -3.23

input: Fill in: cytotoxicity at 70.5 h of CC(C)(C)S(=O)(=O)c1ccc(N2CCC(n3cncn3)CC2)cn1 is ___
output: 14.6

input: Endpoint output: cytotoxicity at 70.5 h of CCN1CC(C(=O)NCCOc2ccc3c(c2)OCO3)CC1=O (configuration not stated) . Value?
output: -1.5

input: # lookup: cytotoxicity at 70.5 h of COC(=O)CC1CSCCN1C(=O)CCc1c(C)nn(C)c1C (configuration not stated)
output: -7.68

input: Entry under review: Cc1nc(S(=O)(=O)CCn2cccn2)n(CC2CCCO2)c1C (configuration not stated) . Reported cytotoxicity at 70.5 h?
output: -2.87

input: What value of measured cytotoxicity at 70.5 h is listed for Cc1ncsc1CN1CC[C@H]2OCC[C@@]2(C(=O)N2CCOCC2)C1 ?
output: -4.06

More entries:
input: cytotoxicity at 70.5 h for CS(=O)(=O)CCn1ccc(NC(=O)Cc2c[nH]c3ccccc23)n1 ?
output: 5.18

input: Sample CCCSc1ncc(C2CC(=O)NCc3nc4ccccn4c32)cn1 (configuration not stated) — what was its cytotoxicity at 70.5 h?
output: -3.19

input: GET /values?readout=cytotoxicity at 70.5 h&item= Cc1nn2c(NC(=O)CSc3ncccn3)csc2nc1=O
output: -12.6

input: I would be grateful if you could share the reported cytotoxicity at 70.5 h for CCn1ncnc1C(C)NC(=O)C1CCN(C2CCCCC2)CC1 (configuration not stated) .
output: -7.1

input: Fill blank: measured cytotoxicity at 70.5 h of the compound O=C(c1ccc(OCC2CC2)cc1)N1CCOCC1c1ncon1 (configuration not stated) is ____.
output: 1.72

input: Quick one: cytotoxicity at 70.5 h of O=C1NCC(C(=O)NCc2ccccc2CN2CCOCC2)N1 (configuration not stated) ?
output: -4.6

input: Value lookup for cytotoxicity at 70.5 h; key = CC(C)c1nc(CN(C)C2CCN(CCNS(C)(=O)=O)C2)no1 (configuration not stated)
output: 32.3

----------
- ASSAY_EXPLANATION: Human HepG2 cell viability assay in 384 well format
- Type: toxicity, cell-based
- Design: dose 125 nL, time 70.5 hour; concentration not given beside the values
- PROTOCOL_CONDITIONS: HepG2 cells, read-out: Inhibition
Below is a list of entries, each paired with its recorded cytotoxicity at 70.5 h value.
Kindly answer with a numeric value in %, unit omitted.

These recorded examples may help you get a feel for the data.
input: // returns reported cytotoxicity at 70.5 h for input CCn1c(C)nnc1CN(C)C1CCN(CC2CCC2)C1 (stereo not drawn)
output: 26.1

input: Value lookup for cytotoxicity at 70.5 h; key = Cc1ccc(C(=O)NCC2CCN(Cc3ccccc3C#N)C2)cn1 (stereo not drawn)
output: -5.59

input: I would be grateful if you could share the reported cytotoxicity at 70.5 h for CN(C)C(=O)N[C@H]1CN(Cc2ccc3c(c2)OCO3)[C@@H]2CCCO[C@H]12 .
output: -12.8

input: Sample COC(C)(C)CC(C)NCc1cc(-c2ccco2)on1 (stereo not drawn) — what was its cytotoxicity at 70.5 h?
output: -11.4

input: Could you share which cytotoxicity at 70.5 h value was measured for COCc1nccc(C2CCCN(Cc3cccc(C#N)c3)C2)n1 (stereo not drawn) ?
output: -9.48

input: Please report the recorded cytotoxicity at 70.5 h for CCC(CC)C(O)CNC(=O)Nc1cccc(-c2nccn2C)c1 (stereo not drawn) .
output: -3.63

input: Any idea what cytotoxicity at 70.5 h was measured for Cc1cccc(CN2C(=O)CC[C@@H]3[C@H]2CCN3Cc2ccc(F)cc2)n1 ?
output: -4.94

input: Any idea what its cytotoxicity at 70.5 h is? The compound is O=C(c1cc(C2CC2)[nH]n1)N1CCN(Cc2ccc3c(c2)OCO3)CC1
output: -2.82

***
input: Fill in the blank: the reported cytotoxicity at 70.5 h of Cn1cc(CN2CCCC23CCN(C(=O)c2ccccn2)CC3)cn1 is ____.
output: 18.2

input: What does the record list as cytotoxicity at 70.5 h for Cc1n[nH]c(C)c1-c1cnc(CC2CCCN(S(C)(=O)=O)C2)cn1 (stereo not drawn) ?
output: -10.2

input: Form field: reported cytotoxicity at 70.5 h of Cc1ccc(C)c(C(C(=O)O)N2CCCN(Cc3ccccn3)CC2)c1 (stereo not drawn)
output: -8.23

input: Item CC(=O)NCCCNC(=O)N1CCN(c2cc(F)ccc2F)CC1 has what recorded cytotoxicity at 70.5 h?
output: -6.3

input: Given the entry O=C(NCC(=O)N1CCCC1)c1nc(Cc2c(Cl)cccc2Cl)no1 , report its measured cytotoxicity at 70.5 h.
output: -16.3
